Origin of values: PubChem BioAssay AID1919000

- System: 653999-131-R-J2-PDC complex spheroids, growth % test/control;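 further: spheroids exposed to agents for seven days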
- assay_procedure: Anticancer human tumor 653999-131-R-J2-PDC patient-derived lung adenocarcinoma cell line growth inhibition [AhR]
- condition_summary: second compound 10 µM; first compound 0.0316 µM; active compounds read low
So basically, if viability, T/C comes in under 70% it's rule met, and if it's 70% or more it's rule not met.

Problem: For the molecule O=C(c1cc(Cc2n[nH]c(=O)c3ccccc23)ccc1F)N1CCN(C(=O)C2CC2)CC1 + CC(CO)NC(=O)c1cc(-c2ccc(Cl)cc2)nn(-c2cnn(C)c2)c1=O , is viability, T/C under 70%?
rule not met

Problem: For the molecule COc1ccc([C@@H](O)c2cc(-c3ncnc4cc(N5CCOCC5)ccc34)c(F)cc2Cl)nn1 + Cc1cncc(-c2nc(NCCc3c[nH]c4ccccc34)c3ncn(C(C)C)c3n2)c1 , is viability, T/C under 70%?
rule met

Problem: For the molecule CC1COCCN1c1cc(C2(S(C)(=N)=O)CC2)nc(-c2ccnc3[nH]ccc23)n1 (stereo unspecified) + Cc1ccccc1N=Nc1ccc(NC(=O)c2ccnn2C)c(C)c1 , is viability, T/C under 70%?
rule not met

Problem: For the molecule CC1COCCN1c1cc(-c2ccnn2C)c2ccnc(-c3ccn[nH]3)c2n1 (stereo unspecified) + Cc1cncc(-c2nc(NCCc3c[nH]c4ccccc34)c3ncn(C(C)C)c3n2)c1 , is viability, T/C under 70%?
rule met

Problem: For the molecule COc1cc(Nc2ncc3c(n2)-c2ccc(Cl)cc2C(c2c(F)cccc2OC)=NC3)ccc1C(=O)O + Cc1cncc(-c2nc(NCCc3c[nH]c4ccccc34)c3ncn(C(C)C)c3n2)c1 , is viability, T/C under 70%?
rule met

Problem: For the molecule Nc1ccccc1NC(=O)c1ccc(CNC(=O)OCc2cccnc2)cc1 + CC(CO)NC(=O)c1cc(-c2ccc(Cl)cc2)nn(-c2cnn(C)c2)c1=O , is viability, T/C under 70%?
rule not met
